test system: T-47D (breast cancer cells); experiment: 48 h incubation with the salts: cell fluorescence, living cells, multiplication coefficient (Table 3); type: cell-based, Human; details: 48 hs, 50 mcg/ml
Provide the recorded Percentage of living cells /P %/ for the entries that follow.
Give bare numbers, in %.

CSCCC(NC(C)C1=C(C)c2cc3[nH]c(cc4nc(cc5[nH]c(cc1n2)c(C)c5C(C)NC(CCSC)C(=O)O)C(C)=C4CCC(=O)O)c(CCC(=O)O)c3C)C(=O)O.N=C(N)NCCC[C@H](N)C(=O)O.N=C(N)NCCC[C@H](N)C(=O)O (centres unmarked) :: 10

In the following, a different compound is considered.
Challenge: Returns the measured Percentage of living cells /P %/ for the input compound. Input: CC1=C(CCC(=O)O)c2cc3[nH]c(cc4nc(cc5[nH]c(cc1n2)c(C(C)NC(C)C(=O)O)c5C)C(C(C)NC(C)C(=O)O)=C4C)c(C)c3CCC(=O)O.N=C(N)NCCC[C@H](N)C(=O)O.N=C(N)NCCC[C@H](N)C(=O)O (centres unmarked)
Response given: 85

###

Provide the recorded Percentage of living cells /P %/ for the entries that follow.
tested on: KB (oral cavity cancer cells); experiment: 48 h incubation with the salts: cell fluorescence, living cells, multiplication coefficient (Table 2); format: cell-based, Human; conditions: 48 hs, 50 mcg/ml
One number for each entry, in %.

Use the examples below as a reference point.
CC1=C(CCC(=O)O)c2cc3[nH]c(cc4nc(cc5[nH]c(cc1n2)c(C(C)NC(CCC(=O)O)C(=O)O)c5C)C(C(C)NC(CCC(=O)O)C(=O)O)=C4C)c(C)c3CCC(=O)O.N=C(N)NCCC[C@H](N)C(=O)O.N=C(N)NCCC[C@H](N)C(=O)O (centres unmarked) [PP/Glu/2 /Arg/2] :: 8
CC1=C(CCC(=O)O)c2cc3[nH]c(cc4nc(cc5[nH]c(cc1n2)c(C(C)NC(Cc1ccccc1)C(=O)O)c5C)C(C(C)NC(Cc1ccccc1)C(=O)O)=C4C)c(C)c3CCC(=O)O.N=C(N)NCCC[C@H](N)C(=O)O.N=C(N)NCCC[C@H](N)C(=O)O (centres unmarked) [PP/Fen/2 /Arg/2] :: 12
CC1=C(CCC(=O)O)c2cc3[nH]c(cc4nc(cc5[nH]c(cc1n2)c(C(C)NC(Cc1c[nH]c2ccccc12)C(=O)O)c5C)C(C(C)NC(Cc1c[nH]c2ccccc12)C(=O)O)=C4C)c(C)c3CCC(=O)O.N=C(N)NCCC[C@H](N)C(=O)O.N=C(N)NCCC[C@H](N)C(=O)O (centres unmarked) [PP/Trp/2 /Arg/2] :: 21
CC1=C(CCC(=O)O)c2cc3[nH]c(cc4nc(cc5[nH]c(cc1n2)c(C(C)NC(CO)C(=O)O)c5C)C(C(C)NC(CO)C(=O)O)=C4C)c(C)c3CCC(=O)O.N=C(N)NCCC[C@H](N)C(=O)O.N=C(N)NCCC[C@H](N)C(=O)O (stereo not drawn) [PP/Ser/2 /Arg/2, l-arginine di/N-seryl/-protoporphyrinate] :: 0

In the following, a different molecule is considered.
Challenge: Returns the measured Percentage of living cells /P %/ for the input molecule. Input: CC1=C(CCC(=O)O)c2cc3[nH]c(cc4nc(cc5[nH]c(cc1n2)c(C(C)NC(CS)C(=O)O)c5C)C(C(C)NC(CS)C(=O)O)=C4C)c(C)c3CCC(=O)O.N=C(N)NCCC[C@H](N)C(=O)O.N=C(N)NCCC[C@H](N)C(=O)O (centres unmarked) [PP/Cys/2 /Arg/2]
Response given: 12

###

tested on: T-47D (breast cancer cells); assay: 48 h incubation with the salts: cell fluorescence, living cells, multiplication coefficient (Table 3); format: cell-based, Human; conditions: 48 hs, 50 mcg/ml
Provide the recorded Cell multiplication coefficient /M/ for the entries that follow.

Use the examples below as a reference point.
CC1=C(CCC(=O)O)c2cc3[nH]c(cc4nc(cc5[nH]c(cc1n2)c(C(C)NC(Cc1c[nH]c2ccccc12)C(=O)O)c5C)C(C(C)NC(Cc1c[nH]c2ccccc12)C(=O)O)=C4C)c(C)c3CCC(=O)O.N=C(N)NCCC[C@H](N)C(=O)O.N=C(N)NCCC[C@H](N)C(=O)O (stereo not drawn) :: 0,13
CC1=C(CCC(=O)O)c2cc3[nH]c(cc4nc(cc5[nH]c(cc1n2)c(C(C)NC(Cc1ccccc1)C(=O)O)c5C)C(C(C)NC(Cc1ccccc1)C(=O)O)=C4C)c(C)c3CCC(=O)O.N=C(N)NCCC[C@H](N)C(=O)O.N=C(N)NCCC[C@H](N)C(=O)O (stereo not drawn) :: 0,60
CC1=C(CCC(=O)O)c2cc3[nH]c(cc4nc(cc5[nH]c(cc1n2)c(C(C)NC(CCC(=O)O)C(=O)O)c5C)C(C(C)NC(CCC(=O)O)C(=O)O)=C4C)c(C)c3CCC(=O)O.N=C(N)NCCC[C@H](N)C(=O)O.N=C(N)NCCC[C@H](N)C(=O)O (stereo not drawn) :: 0,80
CC1=C(CCC(=O)O)c2cc3[nH]c(cc4nc(cc5[nH]c(cc1n2)c(C(C)NC(CO)C(=O)O)c5C)C(C(C)NC(CO)C(=O)O)=C4C)c(C)c3CCC(=O)O.N=C(N)NCCC[C@H](N)C(=O)O.N=C(N)NCCC[C@H](N)C(=O)O (stereo not drawn) [PP/Ser/2 /Arg/2, l-arginine di/N-seryl/-protoporphyrinate] :: 0,60
CC1=C(CCC(=O)O)c2cc3[nH]c(cc4nc(cc5[nH]c(cc1n2)c(C(C)NC(C)C(=O)O)c5C)C(C(C)NC(C)C(=O)O)=C4C)c(C)c3CCC(=O)O.N=C(N)NCCC[C@H](N)C(=O)O.N=C(N)NCCC[C@H](N)C(=O)O (stereo not drawn) :: 0,82

Quick request: Cell multiplication coefficient /M/ for each listed item, please.
1. CSCCC(NC(C)C1=C(C)c2cc3[nH]c(cc4nc(cc5[nH]c(cc1n2)c(C)c5C(C)NC(CCSC)C(=O)O)C(C)=C4CCC(=O)O)c(CCC(=O)O)c3C)C(=O)O.N=C(N)NCCC[C@H](N)C(=O)O.N=C(N)NCCC[C@H](N)C(=O)O (stereo not drawn)
2. CC1=C(CCC(=O)O)c2cc3[nH]c(cc4nc(cc5[nH]c(cc1n2)c(C(C)NC(CC(=O)O)C(=O)O)c5C)C(C(C)NC(CC(=O)O)C(=O)O)=C4C)c(C)c3CCC(=O)O.N=C(N)NCCC[C@H](N)C(=O)O.N=C(N)NCCC[C@H](N)C(=O)O (stereo not drawn)
3. CC1=C(CCC(=O)O)c2cc3[nH]c(cc4nc(cc5[nH]c(cc1n2)c(C(C)NC(CCCCN)C(=O)O)c5C)C(C(C)NC(CCCCN)C(=O)O)=C4C)c(C)c3CCC(=O)O.N=C(N)NCCC[C@H](N)C(=O)O.N=C(N)NCCC[C@H](N)C(=O)O (stereo not drawn) [PP/Lys/2 /Arg/2, l-arginine di/N-lysyl/-protoporphyrinate]
4. CC1=C(CCC(=O)O)c2cc3[nH]c(cc4nc(cc5[nH]c(cc1n2)c(C(C)NC(CS)C(=O)O)c5C)C(C(C)NC(CS)C(=O)O)=C4C)c(C)c3CCC(=O)O.N=C(N)NCCC[C@H](N)C(=O)O.N=C(N)NCCC[C@H](N)C(=O)O (stereo not drawn)

Response given:
0,10
0,92
0,92
0,84

###

Provide the recorded Cell multiplication coefficient /M/ for the entries that follow.
Test system: HEp-2 (larynx cancer cells)
Test: 48 h incubation with the salts: cell fluorescence, living cells, multiplication coefficient (Table 3)
Assay type: cell-based, Human
Conditions: 48 hs, 50 mcg/ml
Protocol: New compounds of formula 1 were tested on cell lines. […] 1/ Cell fluorescence /F/: after 48 hs incubation, the cells were washed away, the intensity of fluorescence was measured in a fluorescence microscope and was expressed on an arbitrary scale of 0-4 scores; […] 3/ Cell multiplication coefficient /M/ in the presence of different preparations, expressed as: [formula] […]

CC1=C(CCC(=O)O)c2cc3[nH]c(cc4nc(cc5[nH]c(cc1n2)c(C(C)NC(CC(=O)O)C(=O)O)c5C)C(C(C)NC(CC(=O)O)C(=O)O)=C4C)c(C)c3CCC(=O)O.N=C(N)NCCC[C@H](N)C(=O)O.N=C(N)NCCC[C@H](N)C(=O)O (stereo not drawn) :: 0,40
CC1=C(CCC(=O)O)c2cc3[nH]c(cc4nc(cc5[nH]c(cc1n2)c(C(C)NC(CCC(=O)O)C(=O)O)c5C)C(C(C)NC(CCC(=O)O)C(=O)O)=C4C)c(C)c3CCC(=O)O.N=C(N)NCCC[C@H](N)C(=O)O.N=C(N)NCCC[C@H](N)C(=O)O (stereo not drawn) :: 0,08
CC1=C(CCC(=O)O)c2cc3[nH]c(cc4nc(cc5[nH]c(cc1n2)c(C(C)NC(CO)C(=O)O)c5C)C(C(C)NC(CO)C(=O)O)=C4C)c(C)c3CCC(=O)O.N=C(N)NCCC[C@H](N)C(=O)O.N=C(N)NCCC[C@H](N)C(=O)O (stereo not drawn) [PP/Ser/2 /Arg/2, l-arginine di/N-seryl/-protoporphyrinate] :: 0,50

Quick request: Cell multiplication coefficient /M/ for each listed item, please.
1. CC1=C(CCC(=O)O)c2cc3[nH]c(cc4nc(cc5[nH]c(cc1n2)c(C(C)NC(C)C(=O)O)c5C)C(C(C)NC(C)C(=O)O)=C4C)c(C)c3CCC(=O)O.N=C(N)NCCC[C@H](N)C(=O)O.N=C(N)NCCC[C@H](N)C(=O)O (stereo not drawn)
2. CC1=C(CCC(=O)O)c2cc3[nH]c(cc4nc(cc5[nH]c(cc1n2)c(C(C)NC(CS)C(=O)O)c5C)C(C(C)NC(CS)C(=O)O)=C4C)c(C)c3CCC(=O)O.N=C(N)NCCC[C@H](N)C(=O)O.N=C(N)NCCC[C@H](N)C(=O)O (stereo not drawn)
3. CC1=C(CCC(=O)O)c2cc3[nH]c(cc4nc(cc5[nH]c(cc1n2)c(C(C)NC(CCCCN)C(=O)O)c5C)C(C(C)NC(CCCCN)C(=O)O)=C4C)c(C)c3CCC(=O)O.N=C(N)NCCC[C@H](N)C(=O)O.N=C(N)NCCC[C@H](N)C(=O)O (stereo not drawn) [PP/Lys/2 /Arg/2, l-arginine di/N-lysyl/-protoporphyrinate]
4. CSCCC(NC(C)C1=C(C)c2cc3[nH]c(cc4nc(cc5[nH]c(cc1n2)c(C)c5C(C)NC(CCSC)C(=O)O)C(C)=C4CCC(=O)O)c(CCC(=O)O)c3C)C(=O)O.N=C(N)NCCC[C@H](N)C(=O)O.N=C(N)NCCC[C@H](N)C(=O)O (stereo not drawn)

Response given:
1. 0,21
2. 0,32
3. 0,42
4. 0

Quick request: Cell multiplication coefficient /M/ for each listed item, please.
1. CC1=C(CCC(=O)O)c2cc3[nH]c(cc4nc(cc5[nH]c(cc1n2)c(C(C)NC(Cc1c[nH]c2ccccc12)C(=O)O)c5C)C(C(C)NC(Cc1c[nH]c2ccccc12)C(=O)O)=C4C)c(C)c3CCC(=O)O.N=C(N)NCCC[C@H](N)C(=O)O.N=C(N)NCCC[C@H](N)C(=O)O (stereo not drawn)
2. CC1=C(CCC(=O)O)c2cc3[nH]c(cc4nc(cc5[nH]c(cc1n2)c(C(C)NC(Cc1ccccc1)C(=O)O)c5C)C(C(C)NC(Cc1ccccc1)C(=O)O)=C4C)c(C)c3CCC(=O)O.N=C(N)NCCC[C@H](N)C(=O)O.N=C(N)NCCC[C@H](N)C(=O)O (stereo not drawn)

Response given:
1. 0,15
2. 0,08
